The measured values listed here are drawn from the supplement of paper PMC8671470.

- Test system: HL-60
- assayRemarks: cell viability (% survival relative to DMSO control, bortezomib = 0%); higher = less cytotoxic
- recordedConditions: 1000 nM; 72 h
measuredQuantity: cell viability (%)

compound	quantitativeResult
Cc1[nH]nc(C(F)(F)F)c1Cc1sc2c(c1C(=O)N1C[C@](C)(O)CO1)c(=O)n(C)c(=O)n2C(C)C	113
N#Cc1ccc(N(Cc2ccc(Br)cc2)n2cnnc2)cc1	117
COc1ccc2c(NC(=O)Nc3cccc(C(F)(F)F)n3)ccnc2c1	116
CCOC(=O)c1sc(NC(=O)c2ccco2)c(SC#N)c1C	92.7
OC[C@H]1NC[C@H](O)[C@@H](O)[C@@H]1O	81
CCCc1nc(C)c2c(=O)nc(-c3cc(S(=O)(=O)N4CCN(CC)CC4)ccc3OCC)[nH]n12	112
C=CC(=O)c1ccc(O)cc1	105
CN1CCN(CCCN2c3ccccc3Sc3ccc(C(F)(F)F)cc32)CC1	95.3
CN(Cc1cnc2nc(N)nc(N)c2n1)c1ccc(C(=O)N[C@@H](CCC(=O)O)C(=O)O)cc1 [Methotrexate]	7.28
O=c1c(-c2ccc(O)cc2)coc2cc(O[C@@H]3O[C@H](CO)[C@@H](O)[C@H](O)[C@H]3O)ccc12	93.9
